- Target Entity: Adenosine receptor A1 (Homo sapiens, UniProt P30542)
- Sequence (P30542 whole entry): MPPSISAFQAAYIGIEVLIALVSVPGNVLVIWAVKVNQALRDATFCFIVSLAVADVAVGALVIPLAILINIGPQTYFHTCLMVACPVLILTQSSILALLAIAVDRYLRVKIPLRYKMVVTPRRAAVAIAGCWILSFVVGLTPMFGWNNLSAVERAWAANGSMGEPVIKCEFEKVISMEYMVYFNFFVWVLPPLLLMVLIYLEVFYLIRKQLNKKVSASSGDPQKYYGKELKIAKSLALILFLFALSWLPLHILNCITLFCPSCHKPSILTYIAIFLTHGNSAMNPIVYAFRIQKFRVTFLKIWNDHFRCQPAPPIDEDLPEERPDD
Measurement Kind: Ki (nM)
Report the figure in nM without appending any unit label.

>>> numeric_result("c1ccc(CNc2nc3ccccc3n3nc(-c4ccco4)nc23)cc1")
102
>>> numeric_result("c1ccc(Nc2nc3ccccc3n3nc(-c4ccco4)nc23)cc1")
45.7
>>> numeric_result("CC(=O)Nc1nc2ccccc2n2nc(-c3ccco3)nc12")
112
>>> numeric_result("O=C(CCc1ccccc1)Nc1nc2ccccc2n2nc(-c3ccco3)nc12")
12.6
>>> numeric_result("Nc1nc2ccccc2n2nc(-c3ccco3)nc12")
5.62
>>> numeric_result("O=C(Cc1ccccc1)Nc1nc2ccccc2n2nc(-c3ccco3)nc12")
63.1
>>> numeric_result("CC(O)CNc1nc2ccccc2n2nc(-c3ccco3)nc12 (stereo unspecified)")
3.98
>>> numeric_result("c1coc(-c2nc3c(OCc4ccoc4)nc4ccccc4n3n2)c1")
537
>>> numeric_result("CCOc1nc2ccccc2n2nc(-c3ccco3)nc12")
3720
>>> numeric_result("OCCN(CCO)c1nc2ccccc2n2nc(-c3ccco3)nc12")
58.9

Request: State the recorded Ki for this entry: "c1ccc(CCNc2nc3ccccc3n3nc(-c4ccco4)nc23)cc1"
Response: 93.3
